This collection of values is drawn from patent US20250051443A1.

target: human CD3 (human, UniProt P07766 23-207; P09693 23-182; P04234 22-171); test: cell-based or functional assay
reported property: IC50, indirect ADC surrogate growth inhibition (anti-mouse-DM1) on Jurkat cells (nM)
Write the number in nM without appending the unit.

{"binder": "F332-5F2 (antibody, mouse IgG2b, V domains shown, also called F332-5F2-2; F332-5F2 (6G8, 13A3)) VH: QVQLQQPGAELGKPGTSVKLSCKASGYTFTSYWMHWVKQRPGQGLEWIGNINPNGGDSNYNEKFKSKATLTVDKSSSTAYMQLSTLTSEDSAVYYCTRDISGQYYFDFWGQGTSLTVFS VL: DILMSQSPSSLAVSAGEQVTMSCKSSQSLLNSRTRKNYLAWYQQKPGQSPKLLIFWASTRKSGVPDRFTGSGSGTYFTLTISSVQAEDLAVYYCTQSYNLRTFGGGTKLEIK", "readout unit": "nM", "value reported": 0.173}
{"binder": "F332-4D6 (antibody, mouse IgG2a, V domains shown, also called F332-4D6-2; F322-4D6) VH: QVQLQQSGAELGKPGTSVKLSCKASGYTFTSYWIHWVKQRPGQGLEWIGNINPNSGSTNYNEKFKRKATLTADKSSSTAYMQLSTLTSEDFAVYYCTRDTSGQYYFDYWGQGTTLTVSS VL: DIVMSQSPSSLAVSAGEKVTMSCKSSQSLLNSRTRKNYLAWYQQKPGQSPKVLIYWASTRESGVPDRFTGSGSGTDFTLTISSVQAEDLAVYYCKQSYHLRTFGGGTKLEIK", "readout unit": "nM", "value reported": 0.038}
{"binder": "F282-2D5 (antibody, V domains shown, also called F282-2D5-2) VH: QVQLQQPGTELVKPGASVKLSCKASGYTFTSYWMHWVKQRPGQGLEWIGNINPSNGGTNYNENFKTKATLTVDKSSSTAYMQLSSLTSEDSAVYYCARDRSGQYYFDYWGQGTTLTVSS VL: DIVMSQSPSSLAVSAGEKVTMSCKSSQSLLNSRTRKNYLAWYQQKPGQSPKLLIYWASTRESGVPDRFTGSGSGTDFTLTISSVQAEDLAVYYCIQSYHLRTFGGGTILEIK", "readout unit": "nM", "value reported": 0.075}
{"binder": "F332-1C9 (antibody, mouse IgG2a, V domains shown, Sister clones 1A10, 5H8, 8B11 share the same entries; also called F332-1C9-2; F332-1C9 (1A10, 5H8, 8B11)) VH: QVQLQQPGAELGKPGTSVNLSCKASGYTFTSYWMHWVKQRPGQGLDWIGNINPNSGTTNYNEKFKSKATLTVDKSSSTAYMQLSTLTSEDSAVYYCTRDISGQYYFDYWGQGTSLTVSS VL: DIVMSQSPSSLAVSAGEKVTMSCKSSQSLLNSRTRKNYLAWYQQKPGQSPKLLIYWASTRESGVPDRFTGSGSGTDFTLIISSVQAEDLAVYYCKQSYSLRTFGGGTKLEIK", "readout unit": "nM", "value reported": 0.072}
{"binder": "F332-3E9 (antibody, mouse IgG2a, V domains shown, also called F332-3E9-2; F332-3E9 (12G4)) VH: QVQLQQPGAELGKPGTSVKLSCKASGYTFTSYWIHWLKQRPGQGLEWIGNINPNGGSINCNEKFTTKATLTIDKSSSTAYMQLSTLTSEDFAVYYCTRDTSGQYYFDYWGQGTTLTVSS VL: DIMMSQSPSSLAVSAGEKVTMSCKSSQSLLNSRTRKNYLAWYQQKPGQSPKLLIYWASTRESGVPDRFTGSGSGTDFTLTISSVQAEDLAVYYCTQSYHLRTFGGGTKLEIK", "readout unit": "nM", "value reported": 0.05}

In the following, a different binder is considered.
So what's the measured IC50, indirect ADC surrogate growth inhibition (anti-mouse-DM1) on Jurkat cells for this one? F332-6D7 (antibody, mouse IgG2a, V domains shown, also called F332-6D7-2; F332-6D7 (7G4)) VH: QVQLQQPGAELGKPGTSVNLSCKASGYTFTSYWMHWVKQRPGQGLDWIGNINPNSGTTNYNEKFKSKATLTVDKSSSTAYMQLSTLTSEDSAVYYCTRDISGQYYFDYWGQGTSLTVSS VL: DIVMSQSPSSLAVSAGEKVTMSCKSSQSLLNSRTRKNYLAWYQQKPGQSPKLLIYWASTRESGVPDRFTGSGSGTDFTLTISSVQAEDLAVYYCKQSYSLRTFGGGSKLEIK
0.072
